Source of measurements: paper PMC10397247

- STUDY TARGET: T1, 4H881-AA
- T1 chain: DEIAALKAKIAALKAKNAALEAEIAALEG
- ASSAY OVERVIEW: two-hybrid library CCmax;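 further: natural log of median RNA to DNA barcode read ratio; higher means stronger binding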
- ASSAY CONTEXT: mean of both orientations
Lab note: anything with interaction score at or over -1 counts as T; the rest go in F.

Use the examples below as a reference point.
INSERT INTO measurements (binder, group) VALUES
  ('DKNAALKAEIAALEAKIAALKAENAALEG [4H3627-AA]', 'F'),
  ('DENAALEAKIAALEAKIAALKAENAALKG [4H1324-AA]', 'F'),
  ('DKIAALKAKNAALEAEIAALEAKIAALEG [4H2949-AA]', 'T'),
  ('DKNAALKAKIAALKAENAALEAEIAALEG [4H3921-AA]', 'T'),
  ('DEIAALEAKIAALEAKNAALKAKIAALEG [4H317-AA]', 'T'),
  ('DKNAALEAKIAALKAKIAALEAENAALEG [4H3427-AA]', 'F'),
  ('DEIAALKAENAALKAEIAALKAKIAALEG [4H717-AA]', 'F'),
  ('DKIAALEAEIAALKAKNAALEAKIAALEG [4H2165-AA]', 'T'),
  ('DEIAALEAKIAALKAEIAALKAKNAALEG [4H335-AA]', 'F'),
  ('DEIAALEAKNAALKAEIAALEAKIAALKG [4H454-AA]', 'T');

Does the reported interaction score for DEIAALKAKIAALEAEIAALKAENAALKG [4H780-AA] fall at or above the -1 mark? F

Does the reported interaction score for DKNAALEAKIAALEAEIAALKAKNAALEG [4H3343-AA] fall at or above the -1 mark? F

Does the reported interaction score for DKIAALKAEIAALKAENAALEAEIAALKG [4H2642-AA] fall at or above the -1 mark? T
